Measured values drawn from patent US9469647B2 for this set.

Test: Single rising dose clinical study (pharmacokinetic profile)
Type: in vivo
Conditions: plasma; human; single oral dose 150 mg, aqueous solution; Mean (SD)
Counter-ions that a name gives are not always drawn.
Measurement Type: AUC(0-inf) (ng·h/mL)
Kindly provide the numeric value in ng·h/mL only, without the unit symbol.

Identify measured AUC(0-inf) corresponding to CN1C(=O)c2c(nn(Cc3ccc(-c4cccc(F)n4)cc3)c2Nc2ccccc2)N2C1=N[C@@H]1CCC[C@@H]12 [Phosphate salt]
5050

* * *

Test: Solubility study of phosphate salt crystals in aqueous media at pH 1.2-6.8
Assay type: physicochemical
Conditions: 50 mM phosphate buffer, pH 2, aqueous buffer, thermodynamic from solid, pH 2, 50 mM phosphate buffer; read-out: Solubility after 16 hrs
Measurement Type: solubility at 16 hr

Answer with the recorded solubility at 16 hr for the compound listed here: CN1C(=O)c2c(nn(Cc3ccc(-c4cccc(F)n4)cc3)c2Nc2ccccc2)N2C1=N[C@@H]1CCC[C@@H]12 [Free base API (amorphous)]
> 20 mg/mL

* * *

Test: Single rising dose clinical study (pharmacokinetic profile)
Type: in vivo
Conditions: plasma; human; single oral dose 10 mg, aqueous solution; Mean (SD)
Where a name gives a salt, the structure may show the parent alone.
Measurement Type: AUC(0-inf) (ng·h/mL)
Note: unit ng·h/mL is implicit; provide only the numeric part.

Return value of AUC(0-inf) for input CN1C(=O)c2c(nn(Cc3ccc(-c4cccc(F)n4)cc3)c2Nc2ccccc2)N2C1=N[C@@H]1CCC[C@@H]12 [Phosphate salt] , no commentary.
772

* * *

Experiment: Bridging study of monophosphate salt and free base in dog (plasma pharmacokinetics)
Type: in vivo
Conditions: male, po, 40 mg/kg, dog M-5001, oral gavage
Description: The mono-phosphate salt of (6aR,9aS)-5,6a,7,8,9,9a-hexahydro-5-methyl-3-(phenylamino)-2-((4-(6-fluoropyridin-2-yl)phenyl)methyl)-cyclopent[4,5]imidazo[1,2-a]pyrazolo[4,3-e]pyrimidin-4(2H)-one is administered to dogs at a dose of 40 mg/kg in gelatin capsules or via oral gavage in a vehicle formulation of HCl-Citrate, pH 3.5, 0.5% methylcellulose in water. […] The analysis of drug concentration in plasma samples collected is analyzed. […]
Measurement Type: AUC (ng·h/mL)
Quick reminder: number only, in ng·h/mL, skip the unit.

Please report AUC for the following molecule: CN1C(=O)c2c(nn(Cc3ccc(-c4cccc(F)n4)cc3)c2Nc2ccccc2)N2C1=N[C@@H]1CCC[C@@H]12 [Free base API (amorphous)]
20100

* * *

Experiment: Single rising dose clinical study (pharmacokinetic profile)
Assay type: in vivo
Settings: plasma; human; single oral dose 25 mg, aqueous solution; Mean (SD)
Counter-ions that a name gives are not always drawn.
Measurement Type: AUC(0-t) (ng·h/mL)
State the answer as a number, implicitly in ng·h/mL.

Assign AUC(0-t) to the following record: CN1C(=O)c2c(nn(Cc3ccc(-c4cccc(F)n4)cc3)c2Nc2ccccc2)N2C1=N[C@@H]1CCC[C@@H]12 [Phosphate salt]
1340

* * *

Experiment: Bridging study of monophosphate salt and free base in dog (plasma pharmacokinetics)
Format: in vivo
Conditions: both sexes, po, 40 mg/kg, Mean (M-5001 to F-5102), oral gavage
Measurement Type: Tmax (h)
The reply should contain only the number, in h.

Indicate the recorded Tmax value for this compound: CN1C(=O)c2c(nn(Cc3ccc(-c4cccc(F)n4)cc3)c2Nc2ccccc2)N2C1=N[C@@H]1CCC[C@@H]12 [Free base API (amorphous)]
4
